AIRE transcriptional activation functional score listing for selected variants.
B1: library; numbered along this chain (parent)
chain: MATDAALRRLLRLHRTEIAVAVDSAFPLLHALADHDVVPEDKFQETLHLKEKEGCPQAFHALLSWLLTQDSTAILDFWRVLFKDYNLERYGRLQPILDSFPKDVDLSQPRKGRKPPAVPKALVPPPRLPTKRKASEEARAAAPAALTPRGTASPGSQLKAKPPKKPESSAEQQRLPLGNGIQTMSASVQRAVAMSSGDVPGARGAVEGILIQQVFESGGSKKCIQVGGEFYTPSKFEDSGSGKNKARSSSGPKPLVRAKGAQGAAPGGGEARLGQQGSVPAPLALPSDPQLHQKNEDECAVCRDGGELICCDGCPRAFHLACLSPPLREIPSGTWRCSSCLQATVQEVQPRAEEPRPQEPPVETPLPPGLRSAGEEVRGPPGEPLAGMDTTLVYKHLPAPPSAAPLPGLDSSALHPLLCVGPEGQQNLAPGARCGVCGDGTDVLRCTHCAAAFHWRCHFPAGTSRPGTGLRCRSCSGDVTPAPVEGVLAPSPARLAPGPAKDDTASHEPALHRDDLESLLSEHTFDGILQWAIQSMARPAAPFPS

- Variants of: B1
- assay: AIRE transcriptional activation functional score (insulin promoter-GFP; nonsense median 0, synonymous median 1) (normalised score); higher = higher AIRE activity (more reporter activation)
- experimental_context: with insulin promoter-GFP reporter in HEK293
recorded_metric: AIRE transcriptional activation functional score

# variant_string, number
records = [
    ("S324D", 1.13),
    ("D439I", 0.279),
    ("L158Q", 0.833),
    ("L175M", 1.05),
    ("A246N", 0.102),
    ("G54F", -0.19),
    ("C446R", 0.0344),
    ("R15C", -0.257),
    ("L320N", 0.948),
    ("L67H", 0.742),
    ("E40T", -0.598),
    ("D410K", 0.35),
    ("G178V", 1.28),
    ("S241P", 1.31),
    ("G369N", 1.1),
    ("G469P", 0.911),
    ("C434K", -0.158),
    ("L511C", 0.201),
    ("E51N", -2.61),
    ("T447N", 1.26),
    ("L62K", -0.404),
    ("H396N", 1.09),
]
